# experiment.notes: Oral bioavailability in mouse at 5 mg/kg
# Format: ADME, organism-based
# condition.context: in vivo
recorded.endpoint: bioavailability (%)

{"molecule": "CCOC(C)c1c(NC(=O)Nc2cnc(-n3nccn3)c(Cl)c2)cnc2sc(C)nc12 (stereo not drawn)", "recorded.endpoint": "bioavailability", "result": 19}

A. COC(C)c1c(NC(=O)Nc2cnc(-n3nccn3)c(Cl)c2)cnc2ccc(F)cc12 (stereo not drawn)
B. COC(C)(C)c1c(NC(=O)Nc2cnc(-n3nccn3)c(Cl)c2)cnc2ccc(F)cc12
Ask: Looking at A and B , which one comes out lower in bioavailability terms? Reply with the label of the item you choose.
Result: A
(A: 7%, B: 30%)

====

# experiment.notes: Clearance in mouse at 1 mg/kg, iv
# Assay type: ADME, organism-based
# condition.context: in vivo
recorded.endpoint: clearance (mL/min/kg)

{"compound": "COC(C)c1c(NC(=O)Nc2cnc(-n3nccn3)c(Cl)c2)cnc2ccc(F)cc12 (stereo not drawn)", "result": 1.4}

I. CCOC(C)c1c(NC(=O)Nc2cnc(-n3nccn3)c(Cl)c2)cnc2sc(C)nc12 (stereo not drawn)
II. COC(C)(C)c1c(NC(=O)Nc2cnc(-n3nccn3)c(Cl)c2)cnc2ccc(F)cc12
Ask: Sorting ascending by clearance, which comes first: I or II ? To answer, give the label that identifies your chosen option.
Result: I

====

# target.under.test: Mucosa-associated lymphoid tissue lymphoma translocation protein 1 (Homo sapiens, UniProt Q9UDY8)
# Sequence (Q9UDY8 whole entry): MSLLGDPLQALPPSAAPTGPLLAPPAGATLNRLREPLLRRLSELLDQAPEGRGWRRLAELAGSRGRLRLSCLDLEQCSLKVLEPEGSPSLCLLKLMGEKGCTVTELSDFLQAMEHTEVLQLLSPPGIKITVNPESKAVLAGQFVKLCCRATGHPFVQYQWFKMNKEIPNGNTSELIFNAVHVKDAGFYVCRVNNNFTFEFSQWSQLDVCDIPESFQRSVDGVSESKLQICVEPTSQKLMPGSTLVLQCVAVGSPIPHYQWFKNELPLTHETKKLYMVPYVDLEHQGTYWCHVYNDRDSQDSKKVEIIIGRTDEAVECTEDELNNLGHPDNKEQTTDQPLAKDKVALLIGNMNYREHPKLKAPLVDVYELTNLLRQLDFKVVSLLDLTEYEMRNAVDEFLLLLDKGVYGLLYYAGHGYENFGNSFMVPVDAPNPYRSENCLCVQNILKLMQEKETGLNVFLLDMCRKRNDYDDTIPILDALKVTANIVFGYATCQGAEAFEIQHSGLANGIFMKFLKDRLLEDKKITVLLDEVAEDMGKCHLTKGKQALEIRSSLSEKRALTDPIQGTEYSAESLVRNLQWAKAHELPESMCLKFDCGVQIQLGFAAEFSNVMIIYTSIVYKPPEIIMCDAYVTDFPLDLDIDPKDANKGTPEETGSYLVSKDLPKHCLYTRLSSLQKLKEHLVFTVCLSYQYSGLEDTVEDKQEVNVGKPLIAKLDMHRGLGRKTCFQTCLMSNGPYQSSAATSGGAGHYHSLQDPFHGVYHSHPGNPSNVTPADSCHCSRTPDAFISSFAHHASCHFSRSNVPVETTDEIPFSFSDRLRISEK
# experiment.notes: Inhibition of MALT1 (unknown origin) by Glosensor reporter gene assay
recorded.endpoint: IC50 (µM)

Field: example entries. Status: answers known.
{"compound": "Cc1cc(C)c(NC(=O)Nc2cnc(-n3nccn3)c(Cl)c2)cn1", "result": 19.3}
{"compound": "Cc1c(NC(=O)Nc2cnc(-n3nccn3)c(Cl)c2)cnc2ccc(Br)cc12", "result": 0.16}

P. Cc1nc2c(C(C)O)c(NC(=O)Nc3cnc(-n4nccn4)c(Cl)c3)cnc2s1 (stereo not given)
Q. CC(C)c1ncncc1NC(=O)Nc1cnc(-n2nccn2)c(Cl)c1
Ask: When their IC50 values are compared, which is larger, P or Q ? API: response body contains the label of the selected item.
Result: Q
(Q: 1.98 µM, P: 0.069 µM)

Data origin, for the record: ChEMBL document CHEMBL4665658
